Source: ChEMBL document CHEMBL4513135

System: Candida albicans; also: assay method not described here
Conditions: 32 ug/mL
Description: Antifungal activity against Candida albicans ATCC 90028 (CO-ADD:FG_001); MIC in YNB media using NBS plates, by OD630
Results with a measured potency or affinity are listed apart.

| molecule | tested.system | Inhibition |
| --- | --- | --- |
| ClCCC1CCN(Cc2ccccc2)CC1 | Candida albicans | 6.52% |
| CC(C)(C)OC(=O)Nc1ccc(Br)cn1 | Candida albicans | 1.83% |
| Cn1c(C(=O)O)cc2ccccc21 | Candida albicans | 24.1% |
| O=C(O)C(=Cc1ccccc1)NC(=O)c1ccccc1 | Candida albicans | 0.44% |
| CCOC(=O)c1c(C)[nH]c(=O)c(C#N)c1-c1ccccc1 | Candida albicans | 2.08% |
| Cc1ccc(S(=O)(=O)N[C@H]2CC[C@H](O)CC2)cc1 | Candida albicans | 0.9% |
| O=Cc1cc2ccccc2nc1Cl | Candida albicans | 7.94% |
| C#CCN1CCc2nc3nc(N4CCCC4)c(C#N)cc3c(N)c2C1 | Candida albicans | 1.92% |
| Cn1cc(/C=C2\NC(=S)NC2=O)c2ccccc21 | Candida albicans | -0.01% |
| CCOC(=O)C1=C(C)OC(N)=C(C#N)C1c1ccncc1 (stereo not drawn) | Candida albicans | -1.5% |
| Cc1nc2c3cnn(-c4ccccc4)c3nc(C)n2n1 | Candida albicans | -1.82% |
| N#Cc1c(N)nc2[nH]nc(N)c2c1-c1ccccc1 | Candida albicans | 0.49% |
| N#Cc1c(-c2ccccc2)c2c(ccc3ccccc32)oc1=O | Candida albicans | 0.36% |
